- targetOrSystem: T1, TPR domain of T. cruzi PEX5 (347–668) (T. cruzi, UniProt Q4DPQ9 347-668)
- T1 construct: PEX5, Trypanosoma cruzi, C-terminal tetratricopeptide repeat (TPR) domain, residues 347-668; codon-optimised synthetic gene in the petHSU vector; The His-SUMO tag was cleaved on the column with dtUD1 protease; also called TcPEX5; TcPEX5 (TPR domain); source: E. coli BL21 (DE3), purified (HiTrap IMAC, on-column tag cleavage, SEC S75); not shown: His6, N-terminal, cleaved
- T1 sequence (looked up): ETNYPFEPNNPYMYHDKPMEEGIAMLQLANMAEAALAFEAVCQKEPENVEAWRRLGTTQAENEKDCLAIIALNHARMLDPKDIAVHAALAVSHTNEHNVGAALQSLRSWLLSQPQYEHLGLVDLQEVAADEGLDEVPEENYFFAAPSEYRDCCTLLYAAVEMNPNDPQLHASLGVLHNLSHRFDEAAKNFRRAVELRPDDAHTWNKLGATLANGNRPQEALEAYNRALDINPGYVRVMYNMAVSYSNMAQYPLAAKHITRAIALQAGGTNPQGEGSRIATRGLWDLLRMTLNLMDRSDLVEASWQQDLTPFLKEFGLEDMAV
- testProtocol: fluorescence polarisation; saturation binding: 10 nM 6-FAM-PTS1 titrated with TcPEX5 (0.1–250 nM); 10 mM Hepes pH 7.5, 100 mM NaCl, 5% DMSO; one-site fit
- testConditions: both partners purified
Where no end group is shown, it is not given here. The star is where a group is joined. 6FAM = O=C1OC2(c3ccc(O)cc3Oc3cc(O)ccc32)c2cc(C(=O)*)ccc21
measuredParameter: pKd
Scale note: pKd = -log10(concentration in M).

input: Quick one: pKd of 6FAM-YQSKL (pentapeptide representing peroxisomal targeting signal 1 (PTS1); also called 6-FAM-PTS1; FAM-PTS1) [6-FAM-labelled PTS1 (6-FAM-YQSKL)] ?
output: 7.68
